Values compiled from PubChem BioAssay (NCATS).

protocolDescription: Primary fluorescence-based thiol-reactive (MSTI) qHTS assay for identification of artifact compounds. (AID 1845221); also: nearly all actives have a fitted effect of over 65% in size
measurementConditions: MSTI thiol-reactivity probe, 1 h; series mostly up to 53.8 µM
Records with an inconclusive call do not appear. Activity calls are given as the source filed them. Calls follow the shape of the dose curve; as a rule, active = well fitted inhibition curve with a large enough effect; inconclusive = small, poorly fitted or top-dose-only effect; inactive = no such curve, though single readings can be large or run the other way.
Would you mind answering with one of these outcomes? active, inactive

Before answering, review these 10 worked examples.
| compound | discreteLabel |
| --- | --- |
| CC1=C(C(=O)O)/C(=C/CO[C@@H]2O[C@H](COC(=O)/C=C/c3ccc(O)cc3)[C@@H](O)[C@H](O)[C@H]2O)C(O)C1 (some centres undefined) | active |
| CC12CCC(C(OC3OC(COC4OCC(O)(CO)C4O)C(O)C(O)C3O)C1)C(C)(C)O2 (centres undefined) | inactive |
| CCCCOC(=O)NC(=O)C1c2ccccc2Oc2ccccc21 | inactive |
| CC1=CC(=O)[C@H]2C(C)(C)CCC[C@]2(C)[C@@]1(O)CO | inactive |
| C/C=C/c1ccc2c(c1)[C@@H](C)[C@H](c1ccc(O)cc1)O2 | inactive |
| N#C[C@@H]1CCCN1C(=O)CNC12CC3CC(CC(O)(C3)C1)C2 | inactive |
| CC1=CCC2C(C)(C)CCC[C@]2(C)[C@@]12CC[C@](C)(CC(=O)O)O2 (some centres undefined) | inactive |
| CC1CCC2(C=O)C(CO)=CCCC2C1(C)CC(=O)O (centres undefined) | active |
| C/C=C1\[C@H](OC2OC(COC3OC(CO)C(O)C(O)C3O)C(O)C(O)C2O)OC=C(C(=O)OC)[C@H]1CC(=O)OCCc1ccc(O)cc1 (some centres undefined) | active |
| C=C1C(=O)OC2C1C(O)CC1(C)C(O)CCC(C=O)C21 (centres undefined) | inactive |

Qu. Would you mind telling me which call this test gave O=C(/C=C/c1ccc(O)cc1)N[C@@H](Cc1ccc(O)cc1)C(=O)O ?
Ans. active

Qu. # outcome recorded in this test, key = O=C(O)[C@H](Cc1ccc(Nc2nccc3ccncc23)cc1)NC1=C(Br)C(=O)C12CCCCC2
Ans. inactive

Qu. Give the logged outcome of this assay for the following compound: C=C1CC[C@@H]2[C@](C)(CO[C@@H]3O[C@H](CO)[C@@H](O)[C@H](O)[C@H]3O)[C@H](O)CC[C@@]2(C)[C@@H]1C/C=C1/C(=O)OC[C@H]1O
Ans. active

Qu. Recorded test call requested for C=C1CCC2C(C)(C(=O)OC)CCCC2(C)C1CCC(C)CC(=O)O (centres undefined)
Ans. inactive

Qu. Status in this test for Cc1cc(-c2cc(O)ccc2Cl)cc2nnc(Nc3ccc(OCCN4CCCC4)cc3)nc12 ?
Ans. active

Qu. Recorded test call requested for C=C[C@]1(C)C=C2CCC3C(C)(CCC[C@@]3(C)C(=O)O)C2CC1 (some centres undefined)
Ans. inactive

Qu. Query: recorded result category for C[C@H](O)[C@H](O)/C=C/c1cccc(O)c1CO in this test
Ans. inactive

Qu. I would be grateful if you could indicate the recorded call for O=c1[nH]ccc2cc(OC3CCNCC3)ccc12 .
Ans. inactive

Qu. Dear colleague, could you share the recorded outcome for CC(C)(C#N)c1ccc(N2C(=O)OCc3cnc4ccc(-c5cnc6ccccc6c5)cc4c32)cc1 when you have a moment?
Ans. inactive

---

protocolDescription: Primary qHTS for inhibitors of nuclear receptor binding SET domain protein 2 (NSD2) in an RCH-ACV wild type WT cells (2C) (AID 1645877); also: nearly all actives have a fitted effect of over 70% in size
measurementConditions: RCH-ACV (leukaemia line) NSD2 WT (2C) viability, CellTiter-Glo, 72 h; series mostly up to 44.9 µM
Records with an inconclusive call do not appear. Calls of active or inactive are those of the source. Calls come from the whole dose curve; as a rule, active = well fitted inhibition curve with a large enough effect; inconclusive = small, poorly fitted or top-dose-only effect; inactive = no such curve, though single readings can be large or run the other way.
Tick one outcome: active, inactive

Answered examples (6):
| compound | discreteLabel |
| --- | --- |
| COc1cc(C2Oc3c(OC)cc(CCCO)cc3C2CO)ccc1O[C@H]1O[C@H](C)[C@@H](O)[C@H](O)[C@@H]1O (some centres not stated) | inactive |
| COCCOc1ccc(N2CCN(CCn3ncc4c3nc(N)n3nc(-c5ccco5)nc43)CC2)cc1 | inactive |
| CC1=C(C)C(=O)OC(C(C)C2CCC3C4C5OC5C5(O)CC(OC6OC(CO)C(OC7OC(C)C(O)C(O)C7O)C(O)C6O)CC(O)C5(C)C4CCC23C)C1 (configuration not stated) | inactive |
| C=CC1(C)CC(OC(=O)/C(C)=C\COC(C)=O)C(C(=C)C(=O)O)C(O)C1C(=C)CO (configuration not stated) | inactive |
| C=C1C(=O)OC2C1CCC(=C)C1CC(OC(C)=O)C(=C)C12 (configuration not stated) | active |
| C/C=C/C=C/[C@@H]1O[C@](O)([C@H](CC)C(=O)NC/C=C/C=C(\C)[C@@H](OC)[C@@H](C)C2OC(/C=C/C=C/C=C(\C)C(=O)c3c(O)cc[nH]c3=O)[C@H](O)[C@@H]2O)[C@H](O)[C@H](O)C1(C)C (some centres not stated) | inactive |

Now look at this entry.
Qu. Could you kindly confirm the outcome this assay logged for C/C=C1\[C@H](OC2OC(COC3OC(CO)C(O)C(O)C3O)C(O)C(O)C2O)OC=C(C(=O)OC)[C@H]1CC(=O)OCCc1ccc(O)cc1 (some centres not stated) ?
Ans. inactive

---

Tested on: Hek293T
protocolDescription: Primary qHTS to identify gynecologic anti-cancer compounds using libraries of approved drugs and bioactive compounds (AID 1345084); also: nearly all actives have a fitted effect of over 55% in size
measurementConditions: Gynecologic cancer cell panel viability, ATPlite luminescence, 48 h, control line for the selectivity index; series mostly up to 57.5 µM
Inconclusive results are not listed. Calls of active or inactive are those of the source. The call rests on the fitted dose curve; in most records, active means well fitted cell-killing curve with a large enough effect; inconclusive means small, poorly fitted or top-dose-only effect, or effect the other way; inactive means flat fitted curve, though single readings scatter.
Can you answer with just one of these options? active, inactive

Here are 5 molecules together with their reported answers.
| molecule | discreteLabel |
| --- | --- |
| NC[C@@](O)(c1ccc(Cl)cc1)c1ccc(-c2cn[nH]c2)cc1 | active |
| Cc1[nH]c2ccccc2c1CCNC(=O)c1ccccc1F | inactive |
| CC1CC(=O)C2=C(CCC3(O)C(O)c4c(O)cccc4C(=O)C23O)C1 (stereo not drawn) | inactive |
| CC(C)=CCC[C@](C)(O)[C@H]1CC[C@]2(C)[C@@H]1[C@H](O)CC1[C@@]3(C)CC[C@H](O)C(C)(C)C3[C@@H](O[C@@H]3O[C@H](CO)[C@@H](O)[C@H](O)[C@H]3O[C@@H]3OC[C@@H](O)[C@H](O)[C@H]3O)C[C@]12C (stereo partly drawn) | inactive |
| C[C@H]1CC[C@@]2(OC1)O[C@H]1CC3C4CC[C@H]5C[C@@H](O)[C@H](O)C[C@]5(C)C4=CC(=O)[C@]3(C)[C@H]1[C@@H]2C (stereo partly drawn) | inactive |

Qu. Any idea what this test logged for O=C(/C=C\n1cnc(-c2cc(C(F)(F)F)cc(C(F)(F)F)c2)n1)N1CC(F)(F)C1 ?
Ans. active

Qu. GET /call?item= COC(=O)CC(O)CC(O)/C=C/c1c(C)ccc2c1C(O)CC(C)C2 (stereo not drawn) returns the recorded outcome of this test.
Ans. inactive

Qu. // param item: CCN1CCN(Cc2ccc(Nc3ncc(F)c(-c4cc(F)c5nc(C)n(C(C)C)c5c4)n3)nc2)CC1 ; yields the recorded call
Ans. inactive

---

Test system: HaCat
protocolDescription: Cytotoxic Profiling of Annotated Libraries Using Quantitative High-Throughput Screening (AID 1296008); also: nearly all actives have a fitted effect of over 60% in size; also: potency is read from the fitted curve at half-maximal effect
measurementConditions: Five cell lines viability, CellTiter-Glo ATP luminescence, 48-72 h
Results filed as inconclusive are left out. Active and inactive are the calls of the source. Calls come from the whole dose curve; as a rule, active = well fitted inhibition curve with a large enough effect; inconclusive = small, poorly fitted or top-dose-only effect; inactive = flat fitted curve, though single readings scatter.
measurementKind: Potency

# count of solved cases: 5
| compound | measurementKind | testResult |
| --- | --- | --- |
| COc1cc2nc(N3CCCC3)nc(NCCCCCN3CCCC3)c2cc1OC | Potency | 18.4 µM (active) |
| COC(=O)C1=CO[C@@H](O[C@@H]2O[C@H](CO)[C@@H](O)[C@H](O)[C@H]2O)[C@H]2[C@@H]1C=C[C@@]21C=C([C@H](C)O)C(=O)O1 | Potency | inactive |
| O=C(NCC(O)CO)c1ccncc1Nc1ccc(I)cc1F (centres undefined) | Potency | 18.4 µM (active) |
| CC(=O)O[C@@H]1[C@H](O[C@@H]2O[C@@H](CO)[C@H](O)[C@H]2O)[C@@H](O[C@@H]2O[C@@H](C)[C@H](O[C@@H]3OC[C@@H](O)[C@H](O)[C@H]3O)[C@@H](O)[C@H]2O)[C@H](OC(=O)[C@]23CCC(C)(C)C[C@H]2C2=CCC4[C@@]5(C)CC[C@H](O[C@@H]6O[C@H](C(=O)O)[C@@H](O)[C@H](O)[C@H]6O[C@@H]6O[C@H](CO)[C@H](O)[C@H](O)[C@H]6O)[C@@](C)(C=O)C5CC[C@@]4(C)[C@]2(C)CC3)O[C@@H]1C (some centres undefined) | Potency | inactive |
| CN1C2CCC1CC(OC(=O)[C@H](CO)c1ccccc1)C2 (some centres undefined) | Potency | inactive |

Would you mind listing Potency for each of the following compounds?
1. C=C(CCC1=C(C)[C@H]2[C@H](CC3[C@@H]4CC=C5C[C@@H](O)C[C@@H](O)[C@]5(C)C4[C@H](O)C[C@@]32C)O1)CO[C@@H]1O[C@H](CO)[C@@H](O)[C@H](O)[C@H]1O (some centres undefined)
2. CC(=O)O[C@H]1CC[C@@]2(C)C(CC[C@@H](C)[C@]23Cc2c(O)cc4c(c2O3)CN([C@@H](CCC(=O)O)C(=O)O)C4=O)C1(C)C (some centres undefined)
3. Cc1ccc(S(=O)(=O)c2ccc([N+](=O)[O-])o2)cc1
4. Cc1cc(C)c(CNC(=O)c2cc(-c3ccc(CN4CCOCC4)cc3)cc3c2cnn3C2CCCC2)c(=O)[nH]1
5. Cc1ccc(S(=O)(=O)n2ccc(-c3c(-c4ccc(Cl)cc4)noc3C)n2)cc1
6. C[C@H]1[C@H](O)O[C@@H]2O[C@@]3(C)CC[C@H]4[C@H](C)CC[C@@H]1[C@@]24OO3
7. O=C(O)c1ccccc1NCCc1ccccc1

Ans.
4.32 µM (active)
inactive
6.51 µM (active)
inactive
inactive
6.51 µM (active)
inactive

Quick batch: Potency for everything below.
1. CC(C)CCC[C@@H](C)[C@H]1CC[C@H]2[C@@H]3CC(=O)[C@H]4C[C@@H](O)CC[C@]4(C)[C@H]3CC[C@]12C
2. CCOC(=O)c1sc(NC(=O)[C@H](C(C)C)n2c(=O)[nH]c3ccccc3c2=O)nc1C
3. CCNCc1nc2c(N)nc3ccccc3c2n1CC(C)(C)O
4. CC(C)N(CCCCOCC(=O)NS(C)(=O)=O)c1cnc(-c2ccccc2)c(-c2ccccc2)n1

Ans.
["inactive", "inactive", "inactive", "inactive"]

Your task in this section: give Potency for each listed record.
1. CC(=O)O[C@H]1CC(C)(C)CC2[C@@]13[C@H](O)C[C@]1(C)[C@@]2(CCC2[C@@]4(C)CC[C@H](O[C@@H]5OC[C@H](O[C@@H]6O[C@H](CO)[C@@H](O)[C@H](O)[C@H]6O[C@@H]6OC[C@@H](O)[C@H](O)[C@H]6O)[C@H](O)[C@H]5O[C@@H]5O[C@H](CO)[C@@H](O)[C@H](O)[C@H]5O)C(C)(C)C4CC[C@]21C)O[C@@H]3O (some centres undefined)
2. C[C@@]12CC[C@@H]3[C@@](CC[C@H]4[C@@]3(C)CCC[C@@]4(C)C(=O)O)(CC1=O)C2
3. C=C(C(=O)OC)C1C(O)CC2(C)C(O)CCC(=O)C2C1O (centres undefined)

Ans.
["3.48 µM (active)", "inactive", "inactive"]
